# experimental-system: Solute carrier family 22 member 12 (Homo sapiens)
# Sequence (Q96S37 whole entry, canonical isoform): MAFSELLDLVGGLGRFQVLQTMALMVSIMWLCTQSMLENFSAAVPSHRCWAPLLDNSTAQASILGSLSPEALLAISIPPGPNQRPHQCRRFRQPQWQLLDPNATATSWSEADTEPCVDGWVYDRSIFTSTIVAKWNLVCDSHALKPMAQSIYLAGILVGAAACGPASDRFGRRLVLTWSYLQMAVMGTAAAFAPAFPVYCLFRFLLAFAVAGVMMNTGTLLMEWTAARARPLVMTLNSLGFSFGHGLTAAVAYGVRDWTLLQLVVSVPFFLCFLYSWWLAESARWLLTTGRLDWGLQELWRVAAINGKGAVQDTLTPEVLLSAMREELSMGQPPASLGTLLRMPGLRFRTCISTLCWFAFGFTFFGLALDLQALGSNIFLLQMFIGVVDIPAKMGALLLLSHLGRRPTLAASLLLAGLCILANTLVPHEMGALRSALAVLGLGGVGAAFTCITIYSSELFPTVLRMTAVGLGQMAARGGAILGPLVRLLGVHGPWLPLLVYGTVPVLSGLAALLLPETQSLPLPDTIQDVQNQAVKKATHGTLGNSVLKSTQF
# protocol-description: Inhibition of human C-terminal eGFP-tagged URAT1 long isoform expressed in CHO cells assessed as decrease in [14C]-uric acid uptake preincubated for 15 mins followed by [14C]-uric acid addition and incubated in dark for 3 hrs by scintillation counting method
parameter: log10 IC50 (log10 of the value in nM)
Please interpret these as log10 of IC50 where IC50 is in nM.

Below: 4 compounds and their reported log10 IC50.
smiles-string: N#Cc1ccc(NS(=O)(=O)c2ccccc2C(F)(F)F)cc1
log10 IC50: 2.08
//
smiles-string: N#Cc1ccc(Cl)cc1NS(=O)(=O)c1ccccc1C(F)(F)F
log10 IC50: 2.27
//
smiles-string: N#Cc1cc(NS(=O)(=O)c2ccccc2OC(F)(F)F)ccc1Cl
log10 IC50: 1.30
//
smiles-string: N#Cc1cc(NS(=O)(=O)c2ccccc2C(F)(F)F)ccc1Cl
log10 IC50: 1.26

Shifting focus to the compound that follows.
State its log10 IC50: "N#Cc1cccc(NS(=O)(=O)c2ccccc2C(F)(F)F)c1" 2.22

Origin of the recorded values: ChEMBL document CHEMBL3853265
